For each record, write down the corresponding half-life at 5 μM.
- assay_remarks: In vitro plasma stability, human plasma
- Format: in vitro ADME
- condition_parameters: male, pH 7.4, 5 μM, 37° C., sampling 0-360 minutes, read-out: T1/2 Human
Express the result in min but write the number alone.

Given item CN1N=C(c2cc(Cl)cc(Cl)c2)C(C)(NO)C1=O (stereo not drawn) , the value recorded as its half-life at 5 μM is 43

Given item COc1ccc(C2=NN(C)C(=O)C2(C)NO)cc1F (stereo not drawn) , the value recorded as its half-life at 5 μM is 163

Given item CN1N=C(c2ccc(S(C)(=O)=O)c(N(C)C)c2)C(C)(NO)C1=O (stereo not drawn) , the value recorded as its half-life at 5 μM is 47

Given item CO/N=C(\C)C1(NO)C(=O)N(c2ccccc2)N=C1C(C)(C)C (stereo not drawn) , the value recorded as its half-life at 5 μM is 26

Given item CN(C)C(=O)c1ccc(C2(NO)C(=O)N(C)N=C2C(C)(C)C)cc1 (stereo not drawn) , the value recorded as its half-life at 5 μM is 31

Given item CC1=NN(c2ccc(S(C)(=O)=O)cc2)C(=O)C1(C)NO (stereo not drawn) , the value recorded as its half-life at 5 μM is 130

Given item CC(C)N1N=C(c2ccc(S(C)(=O)=O)cc2)C(C)(NO)C1=O (stereo not drawn) , the value recorded as its half-life at 5 μM is 100

Given item CN1N=C(c2cc(F)c(S(C)(=O)=O)c(F)c2)C(C)(NO)C1=O (stereo not drawn) , the value recorded as its half-life at 5 μM is 40

Given item COc1ccc(C2(NO)C(=O)N(C)N=C2C)cc1OC (stereo not drawn) , the value recorded as its half-life at 5 μM is 14
